Assay: Stability in human liver microsomes at 10 uM after 30 mins by LC-MS/MS analysis
Assay type: ADME, microsome
Settings: read-out: Stability
Labelling field: enter true (1) if recorded remaining at 0.5 h, 10 µM is less than 40%. Enter false (0) if it equals or exceeds that cut-off.

>>> df
                                   compound      label
0  O=C(C1CCCCC1)N1CC2C3CCC(CC3)C2C1 (configuration not stated)   true (1)
1  O=C(C1CCCCC1)N1CC2C3C=CC(CC3)C2C1 (configuration not stated)  false (0)
2  CCN1CCC[C@@H]1C(=O)NC1C2CC3CC(C2)CC1C3 (some centres not stated)  false (0)
3  O=C(C1CCCCC1)N1CC2C3C=CC(C4CC34)C2C1 (configuration not stated)   true (1)
4  O=C(C1CCCCC1)N1CC2C3CCC(C4CC34)C2C1 (configuration not stated)  false (0)
5  O=C(C1CCCCC1)N1CC2C3C=CC(C3)C2C1 (configuration not stated)  false (0)
6  O=C(C1CCCCC1)N1CC2C3CCC(C3)C2C1 (configuration not stated)   true (1)
